Could you please report measured protein stability index for the items listed next?
method-summary: protein stability index of a GFP-peptide fusion (GPS, HEK-293T) (PSI 1-6); higher = more stable;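 also: 24-mer peptide tiles fused after GFP, lentivirally expressed, FACS-sorted into six equal bins by GFP/DsRed ratio, decoded by Illumina sequencing, PSI is the read-weighted mean bin number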
assay-setup: treatment: MLN4924 1 uM, 8 h; c terminus: a fixed tail appended
Give bare numbers.

Some solved cases for reference:
biosequence: LYYLRASKAAAGKMNLYESFAQAT [INTS3]
protein stability index: 2.57

biosequence: AKNAAKDMNGKSLHGKAIKVEQAK [RBMY1A1]
protein stability index: 5.01

biosequence: NICHVWHMNVEALPEWISCLIQKA [RNF180]
protein stability index: 2.57

Return reported protein stability index values for all items listed beneath this line.
1. EFHPHHCNTFVYSSSKGTIRLCDM [PPP2R2B]
2. ELANGKPQTRSGPECGLAKKPPEE [ADAMTSL2]

1: 2.15; 2: 4.78

Return reported protein stability index values for all items listed beneath this line.
1. YRHFLKSPNFDGWFKTRRKEMTQK [DENND6A]
2. PEPLFLGEEDFSLSATIGSILREL [SERTAD3]
3. PESQMCRKFSRECEDQKQIKKPES [NEUROD6]

3.24
2.57
5.31

Return reported protein stability index values for all items listed beneath this line.
1. YLGLPRLEFYRYYQQLKLEGPGEQ [SLC29A1]
2. LLTGQCDFGSNCRFSHMSERDLQE [ZMAT5]
3. ILLQDHIRDLDVVVVSVAGAFRKG [ATL3]
4. DDKLFQKLAKVYSYAHGWMFQGWN [CPN1]

[2.58, 2.78, 2.57, 2.25]

For LLHSRNEGVATYAAAVLFRMSEDK [CTNNB1] , what is its reported protein stability index?
3.22

###

method-summary: protein stability index of a GFP-peptide fusion (GPS, HEK-293T) (PSI 1-6); higher = more stable
assay-setup: treatment: DMSO; c terminus: a fixed tail appended
Could you please report measured protein stability index for the items listed next?
Numbers only.

biosequence: YQSYFKTIEELQQKILCSKSENAR [KRT33B]
measured-metric: protein stability index
reported-value: 2.57
--
biosequence: PDGLMYQKFRNQFLSFSMYQSFVQ [TMEM120A]
measured-metric: protein stability index
reported-value: 2.68
--
biosequence: MAMYWGTSRWSSMEIMEAYSVARQ [KCNAB2]
measured-metric: protein stability index
reported-value: 2.43
--
biosequence: FAGSMFGSVALGPVCPTVCPPGGI [KRT71]
measured-metric: protein stability index
reported-value: 2.73
--
biosequence: GAAESPYSHLGGIDYKTTTILLDG [RAB40A]
measured-metric: protein stability index
reported-value: 3.61

Return reported protein stability index values for all items listed beneath this line.
1. YYFGPCGKYNAMVLELLGPSLEDL [CSNK1G3]
2. FLVSAVAHEYIFCFVLGFFYPVML [SOAT2]
3. HELGHVFNMLHDNSKPCISLNGPL [ADAMTS4]
4. RFSRQCVVDKDKRNQCRYCRLKKC [HNF4A]
5. VMARTRLVVPNKGYSSLDQSPDEK [FAM219A]
6. KIKSEEIEITFSYWDGSGHRRTVK [FAM50A]

3
3.25
3
3.22
4.62
2.27

###

Could you please report measured protein stability index for the items listed next?
method-summary: protein stability index of a GFP-peptide fusion (GPS, HEK-293T) (PSI 1-6); higher = more stable
assay-setup: treatment: MLN4924 1 uM, 8 h; c terminus: a fixed tail appended
One number for each entry.

Some solved cases for reference:
biosequence: PLAEQTPLTLQSQPKEPQLTCDSA [ZSCAN9]
protein stability index: 5.35

biosequence: FTTNKCKGFGFVTMTNYDEAAMAI [ELAVL3]
protein stability index: 2.51

Return reported protein stability index values for all items listed beneath this line.
1. IHGLPTEGYQALYHAVVEPMLWNP [C22orf31]
2. PEQLVLTLLEAEPPHVLISRPSAP [ESR2]
3. NIKPRRYLTVVFEHDAWFIFFMAA [SLC29A1]
4. REQMEQMKQRIAEENIMKSNIDKK [FAM50A]
5. LSFATRFHRLDEPPHICWDETHFG [POMT2]
6. GLSAPHSRQIPAPQGAVLVQREKD [KISS1]

1. 2.13
2. 3.1
3. 2.48
4. 5.24
5. 2.25
6. 5.19

Return reported protein stability index values for all items listed beneath this line.
1. MNLMNELKQNFSKSWHDMQTTTAY [TPD52L1]
2. RLEKAVAAAYTFLQRNPKHELTAK [P3H4]
3. QELLERGLLQLDHRGLRCSWEGLA [RSAD1]
4. AAAAMYTFLPDNFSPAKPKPSKEL [MYORG]
5. HTHRAHTVVPLDDATQEYKEKLQK [TRIM39]

2.47
2.49
2.6
3.59
5.3
